Data credit: patent US12030877B2

target: mPGES-1 Mouse enzyme (Mus musculus, UniProt Q9JM51); construct: made in house; host or cells: FreeStyle 293-F cells, crude microsomal preparation; experiment: mPGES-1 enzyme activity assay (PGE2 enzyme immunoassay), mouse enzyme; type: biochemical; conditions: IC50 against mPGES-1, Mouse enzyme, recombinant microsomal enzyme; means ± SD, triplicate
Sequence (Q9JM51 whole entry): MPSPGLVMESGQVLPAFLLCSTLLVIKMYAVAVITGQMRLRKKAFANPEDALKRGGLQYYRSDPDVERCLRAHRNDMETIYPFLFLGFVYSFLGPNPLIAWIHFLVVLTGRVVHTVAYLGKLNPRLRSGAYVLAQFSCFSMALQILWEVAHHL
pIC50: −log10 of the molar value.
Let's look at some compounds and their measured pIC50.

{"columns": ["Compound", "Study System", "pIC50"],
 "data": [
  ["COc1cc(C=C2C(=O)NC(=O)NC2=O)cc(Cl)c1OCCCCC1CCCCC1", "mPGES-1 Mouse enzyme (Mus musculus, UniProt Q9JM51)", 6.44],
  ["CCCCOc1ccc(-c2nn(-c3ccccc3)cc2C=C2C(=O)NC(=S)NC2=O)cc1", "mPGES-1 Mouse enzyme (Mus musculus, UniProt Q9JM51)", 5.90],
  ["O=C1NC(=O)C(=Cc2cc(I)ccc2OCCCCC2CCCCC2)C(=O)N1", "mPGES-1 Mouse enzyme (Mus musculus, UniProt Q9JM51)", 4.92],
  ["O=C1NC(=O)C(=Cc2ccc(OCCCC3CCCCC3)c([N+](=O)[O-])c2)C(=O)N1 [Compound I-26]", "mPGES-1 Mouse enzyme (Mus musculus, UniProt Q9JM51)", 6.43],
  ["COc1cc(C=C2C(=O)NC(=O)NC2=O)cc(Br)c1OCCCCC1CCCCC1", "mPGES-1 Mouse enzyme (Mus musculus, UniProt Q9JM51)", 6.53],
  ["CCCCOc1ccc(-c2nn(-c3ccc(Cl)cc3)cc2C=C2C(=O)NC(=O)NC2=O)cc1", "mPGES-1 Mouse enzyme (Mus musculus, UniProt Q9JM51)", 6.45]
]}

====

Let's look at some compounds and their measured pIC50.
target: mPGES-1 (Homo sapiens, UniProt O14684); assay: mPGES-1 enzyme activity assay (PGE2 enzyme immunoassay), human enzyme; format: biochemical; design: made in house; host or cells: FreeStyle 293-F cells, crude microsomal preparation; conditions: IC50 against mPGES-1, Human enzyme, recombinant microsomal enzyme; means ± SD, triplicate
pIC50: −log10 of the molar value.

{"columns": ["Compound", "Study System", "pIC50"],
 "data": [
  ["O=C1NC(=O)C(=Cc2ccc(OCCCCc3ccccc3)c(Cl)c2)C(=O)N1", "mPGES-1 (Homo sapiens, UniProt O14684)", 7.14],
  ["CN1C(=O)C(=Cc2ccc(OCCCC3CCCCC3)c([N+](=O)[O-])c2)C(=O)N(C)C1=O", "mPGES-1 (Homo sapiens, UniProt O14684)", 6.73],
  ["O=C1NC(=O)C(Cc2ccc(OCCCCC3CCCCC3)c(Br)c2)C(=O)N1", "mPGES-1 (Homo sapiens, UniProt O14684)", 7.01],
  ["O=C1NC(=O)C(=Cc2ccc(OCCCC3CCCCC3)c([N+](=O)[O-])c2)C(=O)N1 [Compound I-32]", "mPGES-1 (Homo sapiens, UniProt O14684)", 7.14],
  ["O=C1NC(=O)C(=Cc2ccc(OCCCCC3CCCCC3)c(O)c2)C(=O)N1", "mPGES-1 (Homo sapiens, UniProt O14684)", 6.94],
  ["O=C1NC(=O)C(=Cc2ccc(OCCC3CCCCC3)c([N+](=O)[O-])c2)C(=O)N1", "mPGES-1 (Homo sapiens, UniProt O14684)", 6.29],
  ["COc1cc(C=C2C(=O)NC(=O)NC2=O)cc(Br)c1OCCCCC1CCCCC1", "mPGES-1 (Homo sapiens, UniProt O14684)", 7.16],
  ["O=C1NC(=O)C(=Cc2cc(Br)ccc2OCCCCC2CCCCC2)C(=O)N1", "mPGES-1 (Homo sapiens, UniProt O14684)", 7.02],
  ["O=C1NC(=O)C(Cc2ccc(OCCCCC3CCCCC3)c(Cl)c2)C(=O)N1", "mPGES-1 (Homo sapiens, UniProt O14684)", 6.88],
  ["O=C1NC(=O)C(=Cc2cc(I)ccc2OCCCCC2CCCCC2)C(=O)N1", "mPGES-1 (Homo sapiens, UniProt O14684)", 6.87],
  ["CN1C(=O)C(=Cc2ccc(OCCCC3CCCCC3)c(Cl)c2)C(=O)N(C)C1=O", "mPGES-1 (Homo sapiens, UniProt O14684)", 6.62],
  ["CCCCCCCCOc1ccc(-c2nn(-c3ccccc3)cc2C=C2C(=O)NC(=S)NC2=O)cc1", "mPGES-1 (Homo sapiens, UniProt O14684)", 6.95],
  ["CCCCCOc1ccc(C=C2C(=O)NC(=O)NC2=O)cc1[N+](=O)[O-]", "mPGES-1 (Homo sapiens, UniProt O14684)", 6.34],
  ["O=C1NC(=O)C(=Cc2ccc(OCCCCC3CCCCC3)c3ccccc23)C(=O)N1", "mPGES-1 (Homo sapiens, UniProt O14684)", 6.77],
  ["COc1cc(C=C2C(=O)NC(=O)NC2=O)cc(Cl)c1OCCCCC1CCCCC1", "mPGES-1 (Homo sapiens, UniProt O14684)", 7.66]
]}

====

target: mPGES-1 (Homo sapiens, UniProt O14684); test: mPGES-1 enzyme activity assay (PGE2 enzyme immunoassay), human enzyme; assay type: biochemical; set-up: made in house; host or cells: FreeStyle 293-F cells, crude microsomal preparation; conditions: recombinant microsomal enzyme; means ± SD, triplicate; read-out: IC50 against mPGES-1, Human enzyme
IC50 strictly under 500 nM means condition met; at 500 nM or over means condition not met.

{"columns": ["Compound", "Label Class"],
 "data": [
  ["CCCCOc1ccc(/C=C(\\C#N)C(=O)OCC)cc1OC [Compound V-21]", "condition not met"],
  ["CCCCOc1ccc(-c2nn(-c3ccc(Cl)cc3)cc2/C=C(/C#N)C(=O)O)cc1 [VII-14]", "condition met"],
  ["CCCCOc1ccc(/C=C(\\C#N)C(N)=O)cc1OC [Compound V-37]", "condition not met"],
  ["O=C1NC(=S)S/C1=C1\\C(=O)N(CCCC2CCCCC2)c2ccccc21 [II-29]", "condition not met"],
  ["CCCCCCCCCCCCCCCCCCOc1c(Br)cc(/C=C(\\C#N)C(=O)OCC)cc1OC [Compound V-19]", "condition not met"],
  ["CCCCCCCOc1ccc(C=C(C#N)C#N)cc1OC [Compound V-35]", "condition met"],
  ["O=C(O)CN1C(=O)S/C(=C2\\C(=O)N(CC3CCCCC3)c3ccc(-c4ccc(C#Cc5ccccc5)cc4)cc32)C1=O [II-21]", "condition met"]
]}

====

Biological target: UniProt:O14684
Sequence (O14684 1-152): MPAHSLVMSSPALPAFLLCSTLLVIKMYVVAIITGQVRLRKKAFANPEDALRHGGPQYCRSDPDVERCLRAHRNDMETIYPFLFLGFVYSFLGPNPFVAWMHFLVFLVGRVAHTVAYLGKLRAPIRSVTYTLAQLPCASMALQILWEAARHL
Assay: mPGES-1 enzyme activity assay (PGE2 enzyme immunoassay), human enzyme
Type: biochemical
Design: made in house; host or cells: FreeStyle 293-F cells, crude microsomal preparation
Details: compound at a concentration of 10 μM; read-out: % inhibition of the compound against mPGES-1, Human enzyme

{"columns": ["Mol Smiles", "Study System", "inhibition at 10 µM / %"],
 "data": [
  ["CCCCCCCCOc1ccc(-c2nn(-c3ccc(Cl)cc3)cc2C=C(C#N)C#N)cc1", "UniProt:O14684", 52],
  ["CCCCCCOc1ccc(-c2nn(-c3ccc(Cl)cc3)cc2/C=C(/C#N)C(=O)OCC)cc1", "UniProt:O14684", 37],
  ["CCCCOc1ccc(-c2nn(-c3ccc(Cl)cc3)cc2C=C(C#N)C#N)cc1", "UniProt:O14684", 77],
  ["CCCCCCCCCCOc1ccc(-c2nn(-c3ccccc3)cc2C=C2C(=O)N(C)C(=O)N(C)C2=O)cc1", "UniProt:O14684", 0],
  ["CCCCOc1ccc(-c2nn(-c3ccccc3)cc2C=C(C#N)C#N)cc1", "UniProt:O14684", 54],
  ["CCCCCCCCOc1ccc(-c2nn(-c3ccccc3)cc2C=C(C#N)C#N)cc1", "UniProt:O14684", 55],
  ["CCCCOc1ccc(-c2nn(-c3ccccc3)cc2C=C2C(=O)N(C)C(=O)N(C)C2=O)cc1", "UniProt:O14684", 30],
  ["O=C(CCCN1C(=O)C=CC1=O)Nc1ccc(OCCCC2CCCCC2)cc1", "UniProt:O14684", 63],
  ["CCCCCCCCCCOc1ccc(-c2nn(-c3ccc(Cl)cc3)cc2C=C(C#N)C#N)cc1", "UniProt:O14684", 47],
  ["CCCCCCCCOc1ccc(-c2nn(-c3ccc(Cl)cc3)cc2C=C2C(=O)N(C)C(=O)N(C)C2=O)cc1", "UniProt:O14684", 6.8],
  ["CCOC(=O)/C(C#N)=C\\c1cn(-c2ccc(Cl)cc2)nc1-c1ccc(OCC)cc1", "UniProt:O14684", 24]
]}
